Just for reference, patent US11760744B2 is where these values come from.

Target: K-Ras G12C (Homo sapiens, UniProt P01116, G12C)
Sequence (P01116 2-188 isoform P01116-2 G12C): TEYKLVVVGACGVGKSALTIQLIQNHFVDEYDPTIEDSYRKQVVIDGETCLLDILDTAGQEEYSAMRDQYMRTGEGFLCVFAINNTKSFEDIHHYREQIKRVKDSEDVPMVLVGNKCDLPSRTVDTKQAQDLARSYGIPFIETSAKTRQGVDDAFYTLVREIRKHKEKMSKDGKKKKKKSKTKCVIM
Assay: K-Ras G12C, SOS1, Raf RBD HTRF assay for inhibition of GTP exchange
Details: 18 hours preincubation with K-Ras G12C at room temperature; SOS1-mediated GTP exchange
pIC50: −log10 of the molar value.
# if value of pIC50 reaches 7, tag Met; if it stays below, tag Not met

Example entries and their recorded answers appear below.
INSERT INTO measurements (molecule, answer_label) VALUES
  ('C=CC(=O)N1CCN(c2nc(OC[C@H]3COC(=O)N3C)nc3c2CC[C@H](c2cc(O)cc4ccccc24)C3)[C@@H](C)C1 (single isomer, unassigned) [Example 57d]', 'Met'),
  ('C=CC(=O)N1CCN(c2ncnc3c2C[C@H](C)[C@@H](c2c(C)ccc4[nH]ncc24)C3)CC1 (single isomer, unassigned) [Example 15b]', 'Not met'),
  ('C=CC(=O)N1CCN(c2nc(OC[C@@H]3C[C@@H](F)CN3C)nc3c2C[C@@H](C)[C@H](c2nc(N)cc(C)c2C2CC2)C3)[C@@H](C)C1 (single isomer, unassigned) [Example 24b]', 'Met');

With those in mind, consider the next molecule.
Req: Threshold query (pIC50 >= 7) on C=CC(=O)N1CCN(c2nc(OC[C@@H]3CCCN3C)nc3c2C[C@@H](C)[C@H](c2c(C(F)(F)F)ccc(N)c2F)C3)[C@@H](C)C1 (single isomer, unassigned) [Example 23b]
Resp: Met
